Tested on: MILI (PIWIL2) piRISC loaded with L1MC piRNA (26 nt);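 also: 1 nM active piRISC with 0.1 nM target library at 33 °C single turnover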
method: pre-steady-state target cleavage rate (min^-1); guide: L1MC piRNA 5'p-UAACUAAAUACUAUGCAAGCUGUAGG; MIWI and MILI are mouse PIWI proteins and EfPiwi is from a freshwater sponge; tags in brackets are library labels; higher = faster piRNA-guided slicing of the target
conditions.used: auxiliary factor: none (no GTSF1)
observation.type: pre-steady-state target cleavage rate

Below: 8 sequences and their reported pre-steady-state target cleavage rate.
[
  {
    "residue.string": "UCCUGGAUGUGCUUGCAUAGUAGUUUAGUUA",
    "observation.type": "pre-steady-state target cleavage rate",
    "measurement": 0.00921
  },
  {
    "residue.string": "UCCUCCUACAGCUUGCAUCGUAUUUAGUUA",
    "observation.type": "pre-steady-state target cleavage rate",
    "measurement": 0.00682
  },
  {
    "residue.string": "UCCUGGAUGUGCUUACAUAGUAUUUAGUUA",
    "observation.type": "pre-steady-state target cleavage rate",
    "measurement": 0.0117
  },
  {
    "residue.string": "UCCUGGAUGUGCUAGCUUAGUAUUUAGUUA",
    "observation.type": "pre-steady-state target cleavage rate",
    "measurement": 0.00453
  },
  {
    "residue.string": "UCCUGGAACAGCUUGCAUAGUAUUGUAGUUA",
    "observation.type": "pre-steady-state target cleavage rate",
    "measurement": 0.00351
  },
  {
    "residue.string": "UCCUGGUACAGCUUGAAUAGUAUUUAGUUA",
    "observation.type": "pre-steady-state target cleavage rate",
    "measurement": 0.00915
  },
  {
    "residue.string": "UCCUGGUUCAGCUUGGAUAGUAUUUAGUUA",
    "observation.type": "pre-steady-state target cleavage rate",
    "measurement": 0.013
  },
  {
    "residue.string": "UCCUGGAUGUCCUUGCUUUGUAUUUAGUUA",
    "observation.type": "pre-steady-state target cleavage rate",
    "measurement": 0.00458
  }
]

Give me pre-steady-state target cleavage rate for each of these sequences, listed below.
1. UCCUGGAUGAGCUUGCAUAGUAUUUGAGUUA
2. UCCUGGAACAGCUUGCUUAGUAUAUAGUUA
3. UCCUGCUACAGCUUGCAUAGUAUAUUAGUUA
4. UCCUGGAUGUCGAACGUAUCUAAUUAGUUA
5. UCCUGGAUCUGCUUGCAAAGUAUUUAGUUA

[0.00461, 0.00532, 0.00735, "< 0.0001", 0.0085]

Give me pre-steady-state target cleavage rate for each of these sequences, listed below.
1. UCCUGGAACAGCUUGCAUAGUAGUUUAGUUA
2. UCCUGGAUGAGCUUGCAAAGUAUUUAGUUA
3. UCCUGGAUCAGCUUGCUUAGUAUUUAGUAA
4. UCCUGGAUGUCGUUGCAUAUUAUUUAGUUA
5. UCCUGGAUGUCCUUGCAUAGUAAUUAGUUA

1: 0.00337; 2: 0.00483; 3: 0.00347; 4: 0.00364; 5: 0.00618

Hey, quick one: what's pre-steady-state target cleavage rate for each of these?
1. UCCUCCUAGAGCUUGCAUAGUAUAUAGUUA
2. UCCUGGAUGUCGUUGCAAAGUUUUUAGUUA
3. UCCUGGUACAGGUAGCAUAGUAUUUAGUUA
4. UCCUGGUACAGGUUGCUUAGUAUUUAGUUA

1: 0.00315; 2: 0.00384; 3: 0.00976; 4: 0.0176

Dear colleague, could you send me pre-steady-state target cleavage rate for each of the items below? Thanks.
1. UCCUGGAUGUGCUUGCAUUGUUUUUAGUUA
2. UCCUCCUACAGCUUGCAUAGUAUAUAGUUA
3. UCCUCCUAAAGCUUGCAUAGUAUUUAGUUA
4. UCCUGCUACUCCUUGCAUAGUAUUUAGUUA

1. 0.00335
2. 0.00534
3. 0.00372
4. 0.0091
